pIC50 overview
target: C-X-C chemokine receptor type 4 (Homo sapiens); test: Displacement of [125I]CXCL12 from human CXCR4 expressed in HEK293 cell membranes after 1.5 hrs by Topcount method
Sequence (P61073 whole entry): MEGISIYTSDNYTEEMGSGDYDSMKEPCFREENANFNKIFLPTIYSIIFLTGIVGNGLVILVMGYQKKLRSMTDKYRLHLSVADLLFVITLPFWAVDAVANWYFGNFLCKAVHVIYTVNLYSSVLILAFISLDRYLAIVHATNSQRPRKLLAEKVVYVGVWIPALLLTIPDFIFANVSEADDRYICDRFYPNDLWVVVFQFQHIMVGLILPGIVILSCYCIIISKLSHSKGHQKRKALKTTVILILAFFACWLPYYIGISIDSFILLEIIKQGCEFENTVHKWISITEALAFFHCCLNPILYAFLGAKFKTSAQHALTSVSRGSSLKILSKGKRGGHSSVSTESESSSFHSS
Schema: pIC50 number; meaning minus log10 of the concentration expressed in molar units.

Use the examples below as a reference point.
# Structure As Smiles, pIC50
measured = [
    ("Cc1cc(NC2CCN(CCC(=O)O)CC2)nc(NCc2cn(CCCNCCCNC3CCCCC3)nn2)n1", 7.09),
    ("Cc1cc(NC2CCN(C(=O)CCNCCP(=O)(O)O)CC2)nc(NCc2cn(CCCNCCCNC3CCCCC3)nn2)n1", 6.83),
    ("CC(C)c1cc(NC2CCNCC2)nc(NCc2cn(CCCNCCCNC3CCCCC3)nn2)n1", 7.21),
    ("Cc1cc(NC2CCN(C(=O)CCNCCC(=O)O)CC2)nc(NCc2cn(CCCNCCCNC3CCCCC3)nn2)n1", 7.14),
    ("Cc1cc(N(C)C2CCN(C(=O)CCNCC(=O)O)CC2)nc(NCc2cn(CCCNCCCNC3CCCCC3)nn2)n1", 7.01),
    ("Cc1cc(NC2CCN(C(=O)CNCCC(=O)O)CC2)nc(NCc2cn(CCCNCCCNC3CCCCC3)nn2)n1", 7.08),
]

Challenge: Identify measured pIC50 corresponding to Cc1cc(NC2CCN(CCC#N)CC2)nc(NCc2cn(CCCNCCCNC3CCCCC3)nn2)n1
Response given: 7.14

Challenge: Identify measured pIC50 corresponding to Cc1cc(NC2CCN(C(=O)CC[C@H](N)C(=O)O)CC2)nc(NCc2cn(CCCNCCCNC3CCCCC3)nn2)n1
Response given: 7.15

Challenge: Identify measured pIC50 corresponding to Cc1cc(NC2CCN(C(=O)CCCNCC(=O)O)CC2)nc(NCc2cn(CCCNCCCNC3CCCCC3)nn2)n1
Response given: 7.05

Challenge: Identify measured pIC50 corresponding to Cc1cc(NC2CCN(C(=O)CCCC(=O)O)CC2)nc(NCc2cn(CCCNCCCNC3CCCCC3)nn2)n1
Response given: 6.80

Challenge: Identify measured pIC50 corresponding to CCc1cc(NC2CCN(C(=O)CCNCC(=O)O)CC2)nc(NCc2cn(CCCNCCCNC3CCCCC3)nn2)n1
Response given: 7.14

Challenge: Identify measured pIC50 corresponding to Cc1cc(NC2CCN(C(=O)CCNCP(=O)(O)O)CC2)nc(NCc2cn(CCCNCCCNC3CCCCC3)nn2)n1
Response given: 7.04
